- assayInfo: NCI Yeast Anticancer Drug Screen. Data for the rad50 strain (AID 155);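 also: 0% = growth of vehicle-only cultures of the same strain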
- particulars: S. cerevisiae rad50 strain growth inhibition; at 50.0 µM; hits give high values
This is part of a sample that, as a whole, favours compounds with a hit. Of some 79,000 tested, about 15% had one in any assay.
Condition met means recorded growth inhibition is 90% or above; Condition not met means it is below 90%.

- molecule: "c1cc2c(c(NC3=NCCN3)c1)CCCC2"
  groupLabel: "Condition not met"

q: Reported growth inhibition reaches at least 90% for `CC1(C)N=C(N)N=C(N)N1c1cccc(N)c1.[Sn]` ?
a: Condition not met

q: Threshold query (growth inhibition >= 90%) on `CCCCCCCCCCCCN=C(N)N`
a: Condition met

q: Could you please find out whether COc1cc(C2c3cc4c(cc3[C@@H](Nc3ccc(F)cc3)C3COC(=O)[C@H]23)OCO4)cc(OC)c1O (stereo not given in full) has growth inhibition that meets 90% or exceeds it?
a: Condition not met

---

Recorded growth inhibition values for a group of compounds are listed next.
- assayInfo: NCI Yeast Anticancer Drug Screen. Data for the mlh1 strain (AID 171);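 also: 0% = growth of vehicle-treated control cultures of the same strain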
- particulars: S. cerevisiae mlh1 strain growth inhibition; at 100.0 µM; hits give high values
- Procedure: Growth inhibition of yeast strains with defined genetic alterations is measured as a screen for potential anti-cancer activity. Selected strains with alterations in DNA damage repair or cell cycle control were exposed to compounds and growth inhibition was measured relative to vehicle treated controls. The strain used in this assay is mlh1
Compounds without any hit were thinned out: in the full panel of roughly 79,000, 15% have a hit.
Give just the number in %; leave the unit off.

- compound: "CCCCCCCCCC[Se]C#N"
  unitSymbol: "%"
  readoutValue: 90

q: What does the record list as growth inhibition for `Nc1nc(N)c(-c2ccc(Cl)c(Cl)c2)c(CP(Cl)(Cl)(Cl)Br)n1` ?
a: 88

q: State the recorded growth inhibition for this entry: `Cc1ccc2nc3sc(=O)sc3nc2c1`
a: 95

q: What measured growth inhibition goes with CCOP(=O)(CC(C)P(=O)(OCC)OCC)OCC.C[CH2][Sn]([Cl])([Cl])[CH2]C (stereo not given) ?
a: 95

q: Value lookup for growth inhibition; key = OCC(O)C(O)CO (stereo not given) (tested in a mixture with another compound)
a: -3

q: What measured growth inhibition goes with `O=[N+]([O-])c1oc2ccc3ccccc3c2c1CCO` ?
a: 99

---

- assayInfo: NCI Yeast Anticancer Drug Screen. Data for the bub3 strain (AID 167)
- particulars: S. cerevisiae bub3 mutant strain, at 50.0 µM, hits give high values
- Method: Growth inhibition of yeast strains with defined genetic alterations is measured as a screen for potential anti-cancer activity. Selected strains with alterations in DNA damage repair or cell cycle control were exposed to compounds and growth inhibition was measured relative to vehicle treated controls. The strain used in this assay is bub3
This is part of a sample that, as a whole, favours compounds with a hit. Of some 79,000 tested, about 15% had one in any assay.
measuredEndpoint: growth inhibition (%)
Write the number in % without appending the unit.

Use the examples below as a reference point.
- molecule: "CCC[CH2][Sn]1([CH2]CCC)[O]CC(CN(C)Cc2ccccc2)[O]1 (stereo not given)"
  unitSymbol: "%"
  readoutValue: 87.5
- molecule: "CCC[CH2][Sn]([CH2]CCC)([O]C(=O)C(N)CSC)[O]C(=O)C(N)CSC (stereo not given)"
  unitSymbol: "%"
  readoutValue: 88.8
- molecule: "CCC[CH2][Pb]([CH2]CCC)([O]C(C)=O)[O]C(C)=O"
  unitSymbol: "%"
  readoutValue: 92.2
- molecule: "CC(=O)[CH-]C(C)=O.CC(=O)[CH-]C(C)=O.[CH2-]CCC.[CH2-]CCC.[Sn+4]"
  unitSymbol: "%"
  readoutValue: 88.8
- molecule: "O=c1ssc(Cl)c1Cl"
  unitSymbol: "%"
  readoutValue: 87.6
- molecule: "CC(=O)[O][Hg][c]1c(C)c(C)c(C)c(C)c1C"
  unitSymbol: "%"
  readoutValue: 88.5

q: Which growth inhibition value belongs to `CCOP(=O)(OCC)/C(C#N)=C/c1cccc(Cl)c1` ?
a: 89.8

q: Can you look up the measured growth inhibition of `[N-]=[N+]=NS(=O)(=O)c1cccc([N+](=O)[O-])c1` for me?
a: 90.8

q: Please report the recorded growth inhibition for `[O]=[Sb][c]1ccc(Cl)cc1` .
a: 87.7

q: Any idea what growth inhibition was measured for CC[C@]1(O)CC(OC2CC(N(C)C)C(O)C(C)O2)c2c(cc3c(c2O)C(=O)c2c(O)cccc2C3=O)[C@@H]1C(=O)OC (stereo not given in full) ?
a: 92

Attribution: PubChem BioAssay (NCI)
